The molecules listed here are annotated with their GHS category.
Assay: GHS categories as the set defines them, by LD50: 1 up to 5, 2 up to 50, 3 up to 300, 4 up to 2000, 5 above 2000 mg/kg
Details: rat; in vivo; po
Form: value (number only, do not type unit).

CC(C)=CCN(CC=C(C)C)CCC(CCN(CC=C(C)C)CC=C(C)C)(C(N)=O)c1cccc2ccccc12    4
CO[C@]12CC[C@@]3(C[C@@H]1[C@](C)(O)C(C)(C)C)[C@H]1Cc4ccc(O)c5c4[C@@]3(CCN1CC1CC1)[C@H]2O5    4

Exam item: GHS category lookup needed for CCCCCOC(=O)CC , thanks.
Marked response: 5

Exam item: GHS category lookup needed for C#CCON=CC1=CCCN(C)C1 , thanks.
Marked response: 3

* * *

The compounds listed here are annotated with their GHS category.
Experiment: GHS categories as the set defines them, by LD50: 1 up to 5, 2 up to 50, 3 up to 300, 4 up to 2000, 5 above 2000 mg/kg
Conditions: rat; in vivo; po
Form: value (number only, do not type unit).

Example compounds with recorded GHS category:
O=C(O)C(=O)Nc1cccc(-c2nnn[nH]2)c1    5
CC=CC(=O)OC/C=C(\C)CCC=C(C)C    5
COc1cc2nc(N3CCC(N(C)C(=O)c4ccco4)CC3)nc(N)c2cc1OC    4
COC(=O)Cc1c(C(=O)OC)sc(N)c1C#N    5
Nc1nc2cc(Cl)cc(S(=O)(=O)O)c2o1    4

Exam item: GHS category lookup needed for CC(=CCc1c(O)c(Cl)c(C)c(C=O)c1O)CCC=C(C)[C@@H]1CC(=O)C(C)(C)O1 , thanks.
Marked response: 5

Exam item: GHS category lookup needed for CCCCCCCCCNP1(=S)OCc2cc([N+](=O)[O-])ccc2O1 (stereo not given) , thanks.
Marked response: 3

Exam item: GHS category lookup needed for Cc1cc(-c2ccc(N=C=O)c(C)c2)ccc1N=C=O , thanks.
Marked response: 5

Exam item: GHS category lookup needed for CC1CCCCCCCCCCCCC(=O)C1 (stereo not given) , thanks.
Marked response: 5

Exam item: GHS category lookup needed for CCOc1cc(NCCCN(C)C)c(=O)n(-c2ccccc2)n1 , thanks.
Marked response: 5

Exam item: GHS category lookup needed for CCCCc1c(Cc2ccc(-c3ccccc3-c3nn[nH]n3)cc2)c(=O)nc2nc(C)[nH]n12 , thanks.
Marked response: 4

Exam item: GHS category lookup needed for COc1cc([N+](=O)[O-])c(OC)cc1Cl , thanks.
Marked response: 5

Exam item: GHS category lookup needed for CC1Oc2cc(C(=O)c3ccc(Cl)cc3)ccc2N(C)C1=O (stereo not given) , thanks.
Marked response: 5

* * *

Assay: GHS categories as the set defines them, by LD50: 1 up to 5, 2 up to 50, 3 up to 300, 4 up to 2000, 5 above 2000 mg/kg
Details: rat; in vivo; po
The molecules listed here are annotated with their GHS category.
Form: value (number only, do not type unit).

Exam item: GHS category lookup needed for CC(C)(C)C1CCC(CC2=C(O)C(=O)c3ccccc3C2=O)CC1 (centres undefined) , thanks.
Marked response: 5

Exam item: GHS category lookup needed for Cc1cc2[nH]c(=O)[nH]c2cc1N=NC1C(=O)NC(=O)NC1=O , thanks.
Marked response: 5

Exam item: GHS category lookup needed for O=C(Nc1ccccc1SSc1ccccc1NC(=O)c1ccccc1)c1ccccc1 , thanks.
Marked response: 5

Exam item: GHS category lookup needed for CCOC1(c2ccco2)CCN(CCc2ccccc2)CC1C (centres undefined) , thanks.
Marked response: 2

Exam item: GHS category lookup needed for CCCCCCCCCCCCBr , thanks.
Marked response: 5

Exam item: GHS category lookup needed for CC(C)C1OCCN1CCO (centres undefined) , thanks.
Marked response: 4

Exam item: GHS category lookup needed for COc1nn(-c2cccc(C(F)(F)F)c2)c2ncccc12 , thanks.
Marked response: 4

Exam item: GHS category lookup needed for O=C=Nc1cccc2c(N=C=O)cccc12 , thanks.
Marked response: 5

Exam item: GHS category lookup needed for Cc1cc(C(C)(C)C)c(O)c(C)c1Cn1c(=O)n(Cc2c(C)cc(C(C)(C)C)c(O)c2C)c(=O)n(Cc2c(C)cc(C(C)(C)C)c(O)c2C)c1=O , thanks.
Marked response: 5

Exam item: GHS category lookup needed for CCCCCCCCCCCC1CC(O)=C(CCCCCC)C(=O)O1 (centres undefined) , thanks.
Marked response: 5

Exam item: GHS category lookup needed for CCCC1CCOC(C)S1 (centres undefined) , thanks.
Marked response: 5

Exam item: GHS category lookup needed for CCCCCCCCCCCCCCC , thanks.
Marked response: 5

Exam item: GHS category lookup needed for CCCCCCCCCCCCCCCCCCCN , thanks.
Marked response: 5

Exam item: GHS category lookup needed for CCCCCC1=C(CC(=O)OC)CCC1=O , thanks.
Marked response: 5

Exam item: GHS category lookup needed for O=C(Nc1cccc2c(=O)c3c(ccc4c5cc(NC(=O)c6ccccc6)c6c(=O)c7ccccc7c(=O)c6c5[nH]c43)c(=O)c12)c1ccccc1 , thanks.
Marked response: 5

Exam item: GHS category lookup needed for CC(=O)OCC(=O)[C@@]1(OC(C)=O)[C@@H](C)C[C@H]2[C@@H]3C[C@H](F)C4=CC(=O)C=C[C@]4(C)[C@@]3(F)[C@@H](O)C[C@@]21C , thanks.
Marked response: 5

Exam item: GHS category lookup needed for O=C1CC(Nc2ccc(Cl)cc2Cl)=NN1c1c(Cl)cc(Cl)cc1Cl , thanks.
Marked response: 5
